assay: chemical genetic growth profiling, strain panel (AID 1159580);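 note: tested at 20 µM; growth read once vehicle control cultures reached saturation at 30 °C; 1 = growth at the plate median or of vehicle wells; lower values mean less growth of the strain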; settings: S. cerevisiae deletion strains, growth OD, locus YCR088W, strain abp1
Hit rate of the full screen: of about 5,500 compounds, about 2,000 (36%) were called active. About 18% were inconclusive and are not listed. Cut-off read from the data, not from the text of the source: active = normalized growth mostly below about 0.91 (no sharp cut-off); inconclusive = no clear call, values can overlap the other calls; inactive = mostly above about 0.92. This is one part of the list.
Labels: 1 (yes) for active, 0 (no) for inactive

[
  {
    "MOLECULE": "COc1cc2c(c(OC)c1OC)-c1ccc(OC)c(=O)cc1[C@@H](NC(C)=O)CC2",
    "CAT": "0 (no)"
  },
  {
    "MOLECULE": "C=CC(C1=CC(=O)C(OC)=CC1=O)c1ccccc1 (centres undefined)",
    "CAT": "0 (no)"
  },
  {
    "MOLECULE": "C=CC(C1=CC(=O)C(OC)=CC1=O)c1ccc(OC)cc1 (centres undefined)",
    "CAT": "0 (no)"
  },
  {
    "MOLECULE": "O=C(OC1Cc2c(O)cc(O)cc2OC1c1cc(O)c(O)c(O)c1-c1c(C2Oc3cc(O)cc(O)c3CC2OC(=O)c2cc(O)c(O)c(O)c2)cc(O)c(O)c1O)c1cc(O)c(O)c(O)c1 (centres undefined)",
    "CAT": "0 (no)"
  },
  {
    "MOLECULE": "O=C(O[C@@H]1Cc2c(O)cc(O)cc2O[C@@H]1c1cc(O)c(O)c(O)c1-c1c([C@H]2Oc3cc(O)cc(O)c3C[C@H]2O)cc(O)c(O)c1O)c1cc(O)c(O)c(O)c1",
    "CAT": "0 (no)"
  },
  {
    "MOLECULE": "CC(=O)c1c(O)c(C)c(O)c2c1OC1=CC(=O)C(C(C)=O)C(=O)C12C (centres undefined)",
    "CAT": "1 (yes)"
  },
  {
    "MOLECULE": "CC(=O)NCCCS(=O)(=O)O",
    "CAT": "0 (no)"
  },
  {
    "MOLECULE": "C=CC(C1=CC(=O)C(OC)=CC1=O)c1ccc(O)cc1 (centres undefined)",
    "CAT": "0 (no)"
  },
  {
    "MOLECULE": "OC[C@@H](O)[C@@H](O[C@@H]1O[C@H](CO)[C@@H](O)[C@H](O)[C@H]1O)[C@H](O)[C@@H](O)CO",
    "CAT": "0 (no)"
  }
]

###

assay: chemical genetic growth profiling, strain panel (AID 1159580);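 note: tested at 20 µM; growth read once vehicle control cultures reached saturation at 30 °C; 1 = growth at the plate median or of vehicle wells; lower values mean less growth of the strain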; details: S. cerevisiae deletion strains, growth OD, locus YDL134C, strain PPH21, hits give low values
Out of some 5,500 compounds screened, about 2,000 (36%) were called active. Not shown: some 18% with an inconclusive outcome. Some of the results follow.
Each item that follows carries a reported normalized growth.
QUANTITY NAME: normalized growth

[
  {
    "COMPOUND": "CCSc1sc(C(=O)OC)c(-c2ccc(Cl)cc2)c1C#N",
    "MEASURED VALUE": 0.964
  },
  {
    "COMPOUND": "CS(=O)(=O)CCCCN=C=S",
    "MEASURED VALUE": 0.762
  },
  {
    "COMPOUND": "CN(C)C=Nc1nnc(Sc2ncccc2[N+](=O)[O-])s1",
    "MEASURED VALUE": 1.01
  },
  {
    "COMPOUND": "O=C(Nc1ccc(C(F)(F)F)cc1)Nc1ccccc1C(=O)O",
    "MEASURED VALUE": 0.989
  },
  {
    "COMPOUND": "CC1(C)C(C(Cl)Cl)C2(Cl)C(Cl)C(Cl)C1(Cl)C2(Cl)Cl (configuration not stated)",
    "MEASURED VALUE": 0.986
  },
  {
    "COMPOUND": "C=C(C)[C@H]1CC=C(C(=O)O)CC1",
    "MEASURED VALUE": 0.944
  },
  {
    "COMPOUND": "OC[C@@H]1CCCN2CCCC[C@H]12",
    "MEASURED VALUE": 0.989
  }
]
